System: ECU
Test: qHTS profiling for inhibitors of Plasmodium falciparum proliferation (AID 504749); also: nearly all actives have a fitted effect of over 60% in size; also: potency is read from the fitted curve at half-maximal effect
Settings: P. falciparum in erythrocytes, SYBR Green DNA, 72 h; series mostly up to 28.7 µM
Procedure: NIH National Institute of Allergy and Infectious Diseases [NIAID] NIH Chemical Genomics Center [NCGC] […] Because mature erythrocytes lack DNA, only Plasmodium-derived DNA is detected. NCGC Assay Protocol Summary: The SYBR Green viability assay was adapted from a method described previously (Plouffe et al., 2008). […] The following morning, fluorescence intensity at 485(14) nm excitation and 535(25) nm emission wavelengths was measured on an EnVision (Perkin Elmer) plate reader. […]
Results filed as inconclusive are left out. The source made the active and inactive calls. Calls follow the shape of the dose curve; as a rule, active = well fitted inhibition curve with a large enough effect; inconclusive = small, poorly fitted or top-dose-only effect; inactive = flat fitted curve, though single readings scatter.
measurement-name: Potency

Worked examples, 6 compounds total:
{"compound": "C#CCOc1ccc2c(C)cc(=O)oc2c1", "target-system": "ECU", "Potency": "inactive"}
{"compound": "C[C@H]1C[C@H]2[C@@H]3CCC4=CC(=O)C=C[C@]4(C)[C@@]3(F)[C@@H](O)C[C@]2(C)[C@@]1(O)C(=O)CO", "target-system": "ECU", "Potency": "inactive"}
{"compound": "COC(=O)CCC(=O)CN", "target-system": "ECU", "Potency": "inactive"}
{"compound": "Cc1c(C)c2c(c(C)c1O)CC[C@@](C)(CCC[C@H](C)CCC[C@H](C)CCCC(C)C)O2", "target-system": "ECU", "Potency": "inactive"}
{"compound": "COC(F)(F)C(Cl)Cl", "target-system": "ECU", "Potency": "inactive"}
{"compound": "CO[C@H]1C[C@@H]2CC[C@@H](C)[C@@](O)(O2)C(=O)C(=O)N2CCCC[C@H]2C(=O)O[C@H]([C@H](C)C[C@@H]2CC[C@@H](OCCO)[C@H](OC)C2)CC(=O)[C@H](C)/C=C(\\C)[C@@H](O)[C@@H](OC)C(=O)[C@H](C)C[C@H](C)/C=C/C=C/C=C/1C", "target-system": "ECU", "Potency": "1.78 µM (active)"}

Request: Please look at this compound and report its Potency: CN(C)CCCN1c2ccccc2C(C)(C)c2ccccc21
Result: inactive

Request: Please look at this compound and report its Potency: CN=C(NC#N)Nc1ccc(C2=NNC(=O)C[C@@H]2C)cc1
Result: inactive

Request: Please look at this compound and report its Potency: Cc1ccccc1OCC(O)CNCCOc1ccc(C(N)=O)cc1 (stereo not given)
Result: inactive

Request: Please look at this compound and report its Potency: CC(C(=O)O)c1ccc(N2Cc3ccccc3C2=O)cc1 (stereo not given)
Result: inactive

Request: Please look at this compound and report its Potency: CC1=CCC(C(C)(C)O)CC1 (stereo not given)
Result: inactive

Request: Please look at this compound and report its Potency: CC(=O)Oc1c(C)cc(OCC(O)CNC(C)C)c(C)c1C (stereo not given)
Result: inactive

Request: Please look at this compound and report its Potency: O=C(O)c1cc(O)c2c(c1)[O][Bi][O]2
Result: inactive

Request: Please look at this compound and report its Potency: COC(C(=O)C(O)C(C)O)C1Cc2cc3cc(OC4CC(OC5CC(O)C(O)C(C)O5)C(O)C(C)O4)c(C)c(O)c3c(O)c2C(=O)C1OC1CC(OC2CC(OC3CC(C)(O)C(O)C(C)O3)C(O)C(C)O2)C(O)C(C)O1 (stereo not given)
Result: 0.178 µM (active)

Request: Please look at this compound and report its Potency: COC(=O)[C@H]1[C@H]2CC3c4[nH]c5ccccc5c4CCN3C[C@@H]2CC[C@@H]1O (stereo not given in full)
Result: inactive

Request: Please look at this compound and report its Potency: CCOC(=O)C1=CC2(CC)CCCN3CCc4c(n1c1ccccc41)C32 (stereo not given)
Result: 11.2 µM (active)

Request: Please look at this compound and report its Potency: CC(Cc1ccc(O)c(O)c1)C(C)Cc1ccc(O)c(O)c1 (stereo not given)
Result: inactive

Request: Please look at this compound and report its Potency: CCCCC/C=C\C/C=C\CCCCCCCC(=O)O
Result: inactive

Request: Please look at this compound and report its Potency: C[C@]12CCC(=O)C=C1CC[C@@H]1[C@@H]2[C@@H](O)C[C@@]2(C)[C@H]1CC[C@]2(O)C(=O)COP(=O)(O)O
Result: inactive

Request: Please look at this compound and report its Potency: Cc1c(C)c2c(c(C)c1O)CC[C@@](C)(CCC[C@@H](C)CCC[C@@H](C)CCCC(C)C)O2
Result: inactive
